Experiment: Therapeutic index, ratio of CC50 for human C8166 to EC50 for HIV1 3B
Conditions: C8166 cells
observable: selectivity ratio
Number, no unit, nothing else.

Task item: Quick one: selectivity ratio for `CC(=O)c1cn(S(=O)(=O)c2ccc(Cl)cc2)c2ccc(C#N)cc12` ?
Reply: 1.19

Task item: Ok, now `CC(=O)c1cn(S(=O)(=O)c2ccccc2)c2ccc(C#N)cc12`
Reply: 1.21

Task item: Ok, now `O=S(=O)(c1ccccc1)n1ccc2ccccc21`
Reply: 50.7

Task item: Ok, now `CC(=O)c1cn(S(=O)(=O)c2ccc(Cl)c([N+](=O)[O-])c2)c2ccccc12`
Reply: 0.94

Task item: Ok, now `CC(=O)c1cn(S(=O)(=O)c2cccc([N+](=O)[O-])c2)c2ccccc12`
Reply: 77.4

Task item: Ok, now `CC(=O)c1cn(S(=O)(=O)c2cccc([N+](=O)[O-])c2)c2cc(C)ccc12`
Reply: 122

Task item: Ok, now `CC(=O)c1cn(S(=O)(=O)c2ccc(Br)cc2)c2ccc([N+](=O)[O-])cc12`
Reply: 1.29

Task item: Ok, now `CC(=O)c1cn(S(=O)(=O)c2ccc(C)cc2)c2ccc(C#N)cc12`
Reply: 1.91

====

Tested on: Human immunodeficiency virus 1
Experiment: Antiviral activity against HIV1 3B infected in C8166 cells assessed as inhibition of syncytia formation
Type: functional, organism-based
Conditions: Human immunodeficiency virus 1, 3B
observable: log10 of EC50 (log10 of the value in µg/mL)
Kindly note that the scale is log10 and the underlying EC50 is in µg/mL.

Task item: Quick one: log10 of EC50 for `O=S(=O)(c1ccc(Br)cc1)n1ccc2ccccc21` ?
Reply: 1.31

Task item: Ok, now `CC(=O)c1cn(S(=O)(=O)c2cccc([N+](=O)[O-])c2)c2cc(C)ccc12`
Reply: 0.01

Task item: Ok, now `Cc1cn([C@H]2C[C@H](N=[N+]=[N-])[C@@H](CO)O2)c(=O)[nH]c1=O`
Reply: -2.49

Task item: Ok, now `CC(=O)c1cn(S(=O)(=O)c2ccccc2)c2ccc([N+](=O)[O-])cc12`
Reply: 1.66

Task item: Ok, now `CC(=O)c1cn(S(=O)(=O)c2ccc(Cl)cc2)c2ccc(C#N)cc12`
Reply: 1.74

Task item: Ok, now `CC(=O)c1cn(S(=O)(=O)c2ccc(C)cc2)c2ccc(C#N)cc12`
Reply: 1.89

====

Assay: Cytotoxicity against human C8166 cells after 3 days by MTT assay
Format: cell-based
observable: CC50 at 72 h

Task item: Quick one: CC50 at 72 h for `CC(=O)c1cn(S(=O)(=O)c2ccc(C)cc2)c2ccc([N+](=O)[O-])cc12` ?
Reply: > 200 µg/mL

Task item: Ok, now `CCc1ccc(S(=O)(=O)n2cc(C(C)=O)c3cc(C#N)ccc32)cc1`
Reply: 113 µg/mL

Task item: Ok, now `N#Cc1ccc2c(ccn2S(=O)(=O)c2ccccc2)c1`
Reply: > 200 µg/mL

Task item: Ok, now `O=S(=O)(c1ccccc1)n1ccc2ccccc21`
Reply: 47.1 µg/mL

Task item: Ok, now `CC(=O)c1cn(S(=O)(=O)c2ccc(Br)cc2)c2ccc(C#N)cc12`
Reply: > 200 µg/mL

Task item: Ok, now `CC(=O)c1cn(S(=O)(=O)c2ccc(C)cc2)c2ccc(C#N)cc12`
Reply: 147 µg/mL

====

Test system: Human immunodeficiency virus 1
Assay: Antiviral activity against HIV1 3B infected in C8166 cells assessed as inhibition of syncytia formation
Assay type: functional, organism-based
Conditions: Human immunodeficiency virus 1, 3B
observable: EC50 (µg/mL)
Expressed in µg/mL, but write only the number.

Task item: Quick one: EC50 for `CC(=O)c1cn(S(=O)(=O)c2ccc(Br)cc2)c2ccc([N+](=O)[O-])cc12` ?
Reply: 54.5

Task item: Ok, now `CCc1ccc(S(=O)(=O)n2cc(C(C)=O)c3cc(C#N)ccc32)cc1`
Reply: 30.5

Task item: Ok, now `CC(=O)c1cn(S(=O)(=O)c2ccccc2)c2ccc(C#N)cc12`
Reply: 57.5

Task item: Ok, now `N#Cc1ccc2c(ccn2S(=O)(=O)c2ccccc2)c1`
Reply: 3.23

Task item: Ok, now `O=S(=O)(c1ccccc1)n1ccc2ccccc21`
Reply: 0.93

Task item: Ok, now `CC(=O)c1cn(S(=O)(=O)c2cccc([N+](=O)[O-])c2)c2ccccc12`
Reply: 2.12

Task item: Ok, now `O=[N+]([O-])c1cccc(S(=O)(=O)n2ccc3ccccc32)c1`
Reply: 0.74

Task item: Ok, now `CC(=O)c1cn(S(=O)(=O)c2ccc(Cl)c([N+](=O)[O-])c2)c2ccccc12`
Reply: 3.43

====

What selectivity ratio was measured for each of the following?
Assay: Therapeutic index, ratio of CC50 for human C8166 to EC50 for HIV1 3B
Number, no unit, nothing else.

Task item: Quick one: selectivity ratio for Cc1cn([C@H]2C[C@H](N=[N+]=[N-])[C@@H](CO)O2)c(=O)[nH]c1=O [ZIDOVUDINE] ?
Reply: 353000

Task item: Ok, now `CCc1ccc(S(=O)(=O)n2cc(C(C)=O)c3cc(C#N)ccc32)cc1`
Reply: 3.7

====

What CC50 at 72 h was measured for each of the following?
Experiment: Cytotoxicity against human C8166 cells after 3 days by MTT assay
Assay type: cell-based

Task item: Quick one: CC50 at 72 h for `O=S(=O)(c1ccc(Br)cc1)n1ccc2ccccc21` ?
Reply: > 200 µg/mL

Task item: Ok, now `O=[N+]([O-])c1cccc(S(=O)(=O)n2ccc3ccccc32)c1`
Reply: > 200 µg/mL

Task item: Ok, now `CC(=O)c1cn(S(=O)(=O)c2ccccc2)c2ccc([N+](=O)[O-])cc12`
Reply: > 200 µg/mL

====

Test: Therapeutic index, ratio of CC50 for human C8166 to EC50 for HIV1 3B
Conditions: C8166 cells
observable: selectivity ratio

Task item: Quick one: selectivity ratio for `CC(=O)c1cn(S(=O)(=O)c2ccccc2)c2ccc([N+](=O)[O-])cc12` ?
Reply: > 4.36

Task item: Ok, now `N#Cc1ccc2c(ccn2S(=O)(=O)c2ccccc2)c1`
Reply: > 61.9

Task item: Ok, now `O=[N+]([O-])c1cccc(S(=O)(=O)n2ccc3ccccc32)c1`
Reply: > 270

Task item: Ok, now `O=S(=O)(c1ccc(Br)cc1)n1ccc2ccccc21`
Reply: > 9.79
